# System: U2OS
# assay-summary: Multiplex assay against U2OS
# Type: toxicity, cell-based
# condition-description: human, 24 h, 10 µM, compound concentration 10 uM, replicate 1
Parameter Population Tubulin-Different-Phenotype (%): see the listing below.
Kindly answer with a numeric value in %, unit omitted.

Past entries and their recorded results:
smiles-repr	units-of-measure	readout-number
O=C1NC(=O)C(c2cnc3ccccn23)=C1c1cn2c3c(cc(F)cc13)CN(C(=O)N1CCCCC1)CC2	%	100
Cc1cc(C)c(S(=O)(=O)N(Cc2ccc(-c3cccc(S(C)(=O)=O)c3)cc2)Cc2ccc(C(F)(F)F)o2)c(C)c1	%	87

Q: Tell me its Population Tubulin-Different-Phenotype (%) given O=C(Nc1cccnn1)N1CCC(=Cc2cccc(Oc3ccc(C(F)(F)F)cn3)c2)CC1 as the entry.
A: 26
